Every entry's value here was drawn from paper PMC10788856.

- Reported conditions: human serum, 37 °C, 24 h; RP-HPLC, detection at 254 nm
Square brackets hold non-standard residues; d marks the D form. Peptide text beside a SMILES is read from it. Tyr(3-NO2) = N[C@@H](Cc1ccc(O)c([N+](=O)[O-])c1)C(=O)O; Orn = NCCC[C@H](N)C(=O)O
Listed next: entries and their corresponding additional peaks / shoulder in chromatogram after 24 h in serum, total volume percentage.
Value expressed in %; do not type the unit.

// solved cases for additional peaks / shoulder in chromatogram after 24 h in serum, total volume percentage follow
• CC(C)[C@@H](NC(=O)[C@H](CCCN)NC(=O)[C@@H](NC(=O)[C@H](CCCN)NC(=O)[C@H](Cc1c[nH]c2ccccc12)NC(=O)[C@@H](C)NC(=O)[C@H](NC(=O)[C@@H](C)NC(=O)[C@@H](N)Cc1c[nH]c2ccccc12)C(C)C)[C@@H](C)O)C(=O)N[C@@H](Cc1ccc(O)c([N+](=O)[O-])c1)C(N)=O [L3-K] (H-W[dA][dV][dA]W[Orn]T[Orn][dV][Tyr(3-NO2)]-NH2) = 1.3
• CC(C)[C@@H](NC(=O)[C@H](CCCN)NC(=O)[C@@H](NC(=O)[C@H](CCCN)NC(=O)[C@H](Cc1c[nH]c2ccccc12)NC(=O)[C@@H](C)NC(=O)[C@H](NC(=O)[C@@H](C)N)C(C)C)[C@@H](C)O)C(=O)N[C@@H](CCCCN)C(N)=O [L2] (H-[dA][dV][dA]W[Orn]T[Orn][dV]K-NH2) = 0.4

Note: attention shifts to another entry.
Fill in: additional peaks / shoulder in chromatogram after 24 h in serum, total volume percentage of CC(C)[C@@H](NC(=O)[C@H](CCCN)NC(=O)[C@@H](NC(=O)[C@H](CCCN)NC(=O)[C@H](Cc1c[nH]c2ccccc12)NC(=O)[C@@H](C)NC(=O)[C@H](NC(=O)[C@@H](C)NC(=O)[C@@H](N)Cc1c[nH]c2ccccc12)C(C)C)[C@@H](C)O)C(=O)N[C@@H](Cc1ccc(O)c([N+](=O)[O-])c1)C(=O)N[C@@H](CCCCN)C(N)=O [L3] (H-W[dA][dV][dA]W[Orn]T[Orn][dV][Tyr(3-NO2)]K-NH2) is ___
0.6

###

- Tested on: S. aureus
- Experiment description: microbe, parasite or virus in culture
- Assay type: cell-based
- Reported conditions: 16 h
Numbered stars: 1 amine (or outer) side, 2 acyl side, 3 side chain; on linkers, the order of the positions; unused ones are H or OH. Bridge positions count the residues as written; N and C are the ends. Square brackets hold non-standard residues; d marks the D form. Peptide text beside a SMILES is read from it. Tyr(3-NO2) = N[C@@H](Cc1ccc(O)c([N+](=O)[O-])c1)C(=O)O; Glutaryl = O=C(CCCC(=O)[*:2])[*:1]; Orn = NCCC[C@H](N)C(=O)O
Measured attribute: S. aureus MIC

Fill in: S. aureus MIC of CC(C)[C@H]1NC(=O)[C@H](CCCN)NC(=O)[C@H]([C@@H](C)O)NC(=O)[C@H](CCCN)NC(=O)[C@H](Cc2c[nH]c3ccccc23)NC(=O)[C@@H](C)NC(=O)[C@@H](C(C)C)NC(=O)[C@@H](C)NC(=O)[C@H](Cc2c[nH]c3ccccc23)NC(=O)CCCC(=O)NCCCC[C@@H](C(N)=O)NC(=O)[C@H](Cc2ccc(O)c([N+](=O)[O-])c2)NC1=O [C3] (W[dA][dV][dA]W[Orn]T[Orn][dV][Tyr(3-NO2)]K-NH2; linker N-11 via Glutaryl) is ___
>512 µg/mL

###

Listed next: entries and their corresponding S. aureus MIC.
- Test system: S. aureus
- Experiment description: microbe, parasite or virus in culture
- Type: cell-based
- Reported conditions: 16 h
Numbered stars: 1 amine (or outer) side, 2 acyl side, 3 side chain; on linkers, the order of the positions; unused ones are H or OH. Bridge positions count the residues as written; N and C are the ends. Square brackets hold non-standard residues; d marks the D form. Peptide text beside a SMILES is read from it. Tyr(3-NO2) = N[C@@H](Cc1ccc(O)c([N+](=O)[O-])c1)C(=O)O; Glutaryl = O=C(CCCC(=O)[*:2])[*:1]; Orn = NCCC[C@H](N)C(=O)O

* CC(C)[C@H]1NC(=O)[C@@H](C)NC(=O)CCCC(=O)NCCCC[C@@H](C(N)=O)NC(=O)[C@@H](C(C)C)NC(=O)[C@@H](CC(=O)O)NC(=O)[C@H]([C@@H](C)O)NC(=O)[C@@H](CC(=O)O)NC(=O)[C@H](Cc2c[nH]c3ccccc23)NC(=O)[C@@H](C)NC1=O [C1] ([dA][dV][dA]W[dD]T[dD][dV]K-NH2; linker N-9 via Glutaryl) | >512 µg/mL
* CC(C)[C@@H](NC(=O)[C@H](CCCN)NC(=O)[C@@H](NC(=O)[C@H](CCCN)NC(=O)[C@H](Cc1c[nH]c2ccccc12)NC(=O)[C@@H](C)NC(=O)[C@H](NC(=O)[C@@H](C)N)C(C)C)[C@@H](C)O)C(=O)N[C@@H](CCCCN)C(N)=O [L2] (H-[dA][dV][dA]W[Orn]T[Orn][dV]K-NH2) | >512 µg/mL
* CC(C)[C@@H](NC(=O)[C@H](CCCN)NC(=O)[C@@H](NC(=O)[C@H](CCCN)NC(=O)[C@H](Cc1c[nH]c2ccccc12)NC(=O)[C@@H](C)NC(=O)[C@H](NC(=O)[C@@H](C)NC(=O)[C@@H](N)Cc1c[nH]c2ccccc12)C(C)C)[C@@H](C)O)C(=O)N[C@@H](Cc1ccc(O)c([N+](=O)[O-])c1)C(N)=O [L3-K] (H-W[dA][dV][dA]W[Orn]T[Orn][dV][Tyr(3-NO2)]-NH2) | 418.7 µg/mL

Fill in: S. aureus MIC of CC(C)[C@H]1NC(=O)[C@H](CCCN)NC(=O)[C@H]([C@@H](C)O)NC(=O)[C@H](CCCN)NC(=O)[C@H](Cc2c[nH]c3ccccc23)NC(=O)[C@@H](C)NC(=O)[C@@H](C(C)C)NC(=O)[C@@H](C)NC(=O)CCCC(=O)NCCCC[C@@H](C(N)=O)NC1=O [C2] ([dA][dV][dA]W[Orn]T[Orn][dV]K-NH2; linker N-9 via Glutaryl) is ___
>512 µg/mL

Item: CC(C)[C@@H](NC(=O)[C@@H](C)N)C(=O)N[C@H](C)C(=O)N[C@@H](Cc1c[nH]c2ccccc12)C(=O)N[C@H](CC(=O)O)C(=O)N[C@H](C(=O)N[C@H](CC(=O)O)C(=O)N[C@@H](C(=O)N[C@@H](CCCCN)C(N)=O)C(C)C)[C@@H](C)O [L1] (H-[dA][dV][dA]W[dD]T[dD][dV]K-NH2)
>512 µg/mL

Item: CC(C)[C@@H](NC(=O)[C@H](CCCN)NC(=O)[C@@H](NC(=O)[C@H](CCCN)NC(=O)[C@H](Cc1c[nH]c2ccccc12)NC(=O)[C@@H](C)NC(=O)[C@H](NC(=O)[C@@H](C)NC(=O)[C@@H](N)Cc1c[nH]c2ccccc12)C(C)C)[C@@H](C)O)C(=O)N[C@@H](Cc1ccc(O)c([N+](=O)[O-])c1)C(=O)N[C@@H](CCCCN)C(N)=O [L3] (H-W[dA][dV][dA]W[Orn]T[Orn][dV][Tyr(3-NO2)]K-NH2)
248 µg/mL

Item: CC(C)[C@@H](NC(=O)[C@H](CCCN)NC(=O)[C@@H](NC(=O)[C@H](CCCN)NC(=O)[C@H](Cc1c[nH]c2ccccc12)NC(=O)[C@@H](C)NC(=O)[C@H](NC(=O)[C@@H](C)N)C(C)C)[C@@H](C)O)C(N)=O [L2-K] (H-[dA][dV][dA]W[Orn]T[Orn][dV]-NH2)
>512 µg/mL

###

- Tested on: Candida albicans (ATCC 64549/CCUG31028)
- Experiment description: Minimum microbicidal concentration (MMC99) assay
- Type: cell-based, C. albicans
- Reported conditions: BHI diluted 1/100; 37 °C; 24 h; median, n = 3
Marks after values point to notes of the source that are not given here. Numbered stars: 1 amine (or outer) side, 2 acyl side, 3 side chain; on linkers, the order of the positions; unused ones are H or OH. Bridge positions count the residues as written; N and C are the ends. Square brackets hold non-standard residues; d marks the D form. Peptide text beside a SMILES is read from it. Tyr(3-NO2) = N[C@@H](Cc1ccc(O)c([N+](=O)[O-])c1)C(=O)O; Glutaryl = O=C(CCCC(=O)[*:2])[*:1]; Orn = NCCC[C@H](N)C(=O)O
Listed next: entries and their corresponding C. albicans MMC99 24 h.

// solved cases for C. albicans MMC99 24 h follow
• CC(C)[C@H]1NC(=O)[C@H](CCCN)NC(=O)[C@H]([C@@H](C)O)NC(=O)[C@H](CCCN)NC(=O)[C@H](Cc2c[nH]c3ccccc23)NC(=O)[C@@H](C)NC(=O)[C@@H](C(C)C)NC(=O)[C@@H](C)NC(=O)CCCC(=O)NCCCC[C@@H](C(N)=O)NC1=O [C2] ([dA][dV][dA]W[Orn]T[Orn][dV]K-NH2; linker N-9 via Glutaryl) = >100 µg/mL
• CC(C)[C@H]1NC(=O)[C@H](CCCN)NC(=O)[C@H]([C@@H](C)O)NC(=O)[C@H](CCCN)NC(=O)[C@H](Cc2c[nH]c3ccccc23)NC(=O)[C@@H](C)NC(=O)[C@@H](C(C)C)NC(=O)[C@@H](C)NC(=O)[C@H](Cc2c[nH]c3ccccc23)NC(=O)CCCC(=O)NCCCC[C@@H](C(N)=O)NC(=O)[C@H](Cc2ccc(O)c([N+](=O)[O-])c2)NC1=O [C3] (W[dA][dV][dA]W[Orn]T[Orn][dV][Tyr(3-NO2)]K-NH2; linker N-11 via Glutaryl) = >100 µg/mL
• CC(C)[C@H]1NC(=O)[C@@H](C)NC(=O)CCCC(=O)NCCCC[C@@H](C(N)=O)NC(=O)[C@@H](C(C)C)NC(=O)[C@@H](CC(=O)O)NC(=O)[C@H]([C@@H](C)O)NC(=O)[C@@H](CC(=O)O)NC(=O)[C@H](Cc2c[nH]c3ccccc23)NC(=O)[C@@H](C)NC1=O [C1] ([dA][dV][dA]W[dD]T[dD][dV]K-NH2; linker N-9 via Glutaryl) = >100 µg/mL

Note: attention shifts to another entry.
What C. albicans MMC99 24 h appears in the records for this compound with Candida albicans (ATCC 64549/CCUG31028)? Clc1ccccc1C(c1ccccc1)(c1ccccc1)n1ccnc1 [clotrimazole, reference compound]
>100 ^d μg/mL
